STUDY_SYSTEM: Vascular endothelial growth factor receptor 2 (Homo sapiens, UniProt P35968)
Sequence (P35968 whole entry): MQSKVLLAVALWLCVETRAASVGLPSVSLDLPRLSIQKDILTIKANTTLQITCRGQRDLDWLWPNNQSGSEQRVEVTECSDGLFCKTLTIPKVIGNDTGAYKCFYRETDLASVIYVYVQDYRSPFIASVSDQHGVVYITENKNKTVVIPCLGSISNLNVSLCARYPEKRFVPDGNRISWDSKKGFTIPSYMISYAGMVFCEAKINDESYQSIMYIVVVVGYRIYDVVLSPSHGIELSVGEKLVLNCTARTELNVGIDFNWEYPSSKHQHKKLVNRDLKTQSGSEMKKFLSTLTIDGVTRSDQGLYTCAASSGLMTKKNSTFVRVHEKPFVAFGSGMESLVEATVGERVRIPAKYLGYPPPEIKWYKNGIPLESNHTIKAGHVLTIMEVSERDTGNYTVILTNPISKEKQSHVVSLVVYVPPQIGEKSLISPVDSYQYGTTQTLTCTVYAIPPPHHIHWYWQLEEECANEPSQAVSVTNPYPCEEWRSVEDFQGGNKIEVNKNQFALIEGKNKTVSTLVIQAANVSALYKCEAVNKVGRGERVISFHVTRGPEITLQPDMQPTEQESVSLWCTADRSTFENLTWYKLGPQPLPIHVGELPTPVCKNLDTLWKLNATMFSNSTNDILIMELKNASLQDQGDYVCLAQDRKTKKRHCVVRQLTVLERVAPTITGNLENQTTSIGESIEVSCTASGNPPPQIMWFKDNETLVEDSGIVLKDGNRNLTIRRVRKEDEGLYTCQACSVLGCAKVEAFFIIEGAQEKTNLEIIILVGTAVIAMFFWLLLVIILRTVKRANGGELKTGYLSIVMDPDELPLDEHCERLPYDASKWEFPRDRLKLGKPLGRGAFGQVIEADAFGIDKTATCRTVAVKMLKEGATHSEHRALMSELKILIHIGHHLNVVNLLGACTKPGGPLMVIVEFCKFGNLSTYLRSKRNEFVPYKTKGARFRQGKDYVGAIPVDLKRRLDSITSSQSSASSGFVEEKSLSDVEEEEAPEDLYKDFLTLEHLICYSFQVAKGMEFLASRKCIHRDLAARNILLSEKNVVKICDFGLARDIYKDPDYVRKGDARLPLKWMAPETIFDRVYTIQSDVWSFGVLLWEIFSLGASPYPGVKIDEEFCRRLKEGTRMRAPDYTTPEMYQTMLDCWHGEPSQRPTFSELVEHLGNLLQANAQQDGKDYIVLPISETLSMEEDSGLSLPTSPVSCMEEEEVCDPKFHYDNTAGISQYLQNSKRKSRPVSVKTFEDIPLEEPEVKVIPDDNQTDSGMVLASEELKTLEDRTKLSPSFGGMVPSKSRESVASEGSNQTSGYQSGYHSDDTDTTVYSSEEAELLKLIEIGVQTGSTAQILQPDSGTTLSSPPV
PROTOCOL_DETAILS: Inhibition of GST-tagged recombinant human VEGFR2 expressed in Sf9 cells by radiometric assay
ASSAY_METRIC: IC50 (nM)

> print(dat)
                                   compound  number
1  CCS(=O)(=O)c1ccc(OC)c(Nc2ncc(-c3cc(Br)cc(-c4ccccn4)c3)o2)c1     202
2  CCS(=O)(=O)c1ccc(OC)c(Nc2ncc(-c3cc(-c4cccnc4)cc(-c4ccccn4)c3)o2)c1    51.2
3  CCS(=O)(=O)c1ccc(OC)c(Nc2ncc(-c3cc(-c4cccnc4)cc(-c4cccnc4)c3)o2)c1     170
4  CCS(=O)(=O)c1ccc(OC)c(Nc2ncc(-c3cc(-c4ccccn4)cc(-c4ccccn4)c3)o2)c1    15.1
